Origin of the recorded values: patent US10821100B2

# measurement_target: Recombinant human mPGES-1 (Homo sapiens, UniProt O14684)
# Construct: made in house; host or cells: CHO cells (crude microsomal fractions)
# Sequence (O14684 whole entry): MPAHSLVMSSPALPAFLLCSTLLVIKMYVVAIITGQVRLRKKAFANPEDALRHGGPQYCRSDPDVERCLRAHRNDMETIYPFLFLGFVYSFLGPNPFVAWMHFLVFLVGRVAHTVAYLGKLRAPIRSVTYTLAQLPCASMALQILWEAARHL
# procedure_text: In-vitro screening of mPGES-1 inhibitors (inhibition of PGE2 formation from PGH2, HTRF detection)
# Type: biochemical
# condition_set: 10 μM test compound; mPGES-1 enzyme, crude microsomal fractions; read-out: Percentage inhibition at 10 μM
observable: inhibition at 10 µM
Entry format: amount then unit.

Reference set, count: 3
>>> df
                                   compound           observable  endpoint_value
0  O=c1[nH]c(-c2c(F)cccc2Cl)nn1-c1ccc(-c2nc(-c3ccc(F)cc3)no2)cc1 [Example-30]  inhibition at 10 µM           94.5%
1  CC(C)C(=O)NCc1ccc(Cl)c(-c2nn(-c3ccc(C(F)(F)F)cc3)c(=O)[nH]2)c1 [Example-144]  inhibition at 10 µM           92.7%
2  O=C(NCc1cc(-c2nn(-c3ccc(C(F)(F)F)cc3)c(=O)[nH]2)c(Cl)cc1F)[C@H]1CCCO1 [Example-119]  inhibition at 10 µM           94.3%

Value of inhibition at 10 µM reported for the compound CC(C)(C)C(=O)NCc1ccc(Cl)c(-n2nc(-c3ccc(C(F)(F)F)cc3F)[nH]c2=O)c1F [Example-87] is 99.2%
